measuredParameter: melting point

Record excerpt, results attached:
| molecule | melting point |
| --- | --- |
| COC(=O)C1=C(C)NC(c2ncccc2F)=NC1c1ccc(Cl)c([N+](=O)[O-])c1 (stereo not drawn) | 135 to 137 °C |
| COC(=O)C1=C(C)NC(c2ncccc2F)=NC1c1cc([N+](=O)[O-])c(Cl)cc1F (stereo not drawn) | 135 to 136 °C |
| COC(=O)C1=C(C)NC(c2ncccc2F)=NC1c1ccccc1Br (stereo not drawn) | 143 to 144 °C |
| CCOC(=O)C1=C(C)NC(c2ncccc2F)=NC1c1ccc(Cl)cc1 (stereo not drawn) | 133 to 134 °C |

Record CC(=O)C1=C(C)NC(c2ncccc2F)=NC1c1ccccc1Cl (stereo not drawn) . Reported melting point: 132 to 133 °C

Record CCOC(=O)C1=C(C)NC(c2ncccc2F)=NC1c1ccc(Br)cc1F (stereo not drawn) . Reported melting point: 156 to 158 °C

Record COC(=O)C1=C(C)NC(c2ncccc2Cl)=NC1c1ccccc1Br (stereo not drawn) . Reported melting point: 131 to 132 °C

Record CCOC(=O)C1=C(C)NC(c2ncccc2F)=NC1c1ccc(Cl)cc1F (stereo not drawn) . Reported melting point: 162 to 163 °C

Record COC(=O)C1=C(C)NC(c2ncccc2F)=NC1c1ccccc1Cl.Cl (stereo not drawn) . Reported melting point: 210 to 212 °C

Record COC(=O)C1=C(C)NC(c2ccc(Cl)cn2)=NC1c1ccccc1Cl (stereo not drawn) . Reported melting point: 163 to 165 °C

Record COC(=O)C1=C(C)NC(c2cc(OC)ccn2)=NC1c1ccc(F)cc1Cl (stereo not drawn) . Reported melting point: 132 °C

Record COC(=O)C1=C(C)NC(c2ccc(C(F)(F)F)cn2)=NC1c1ccccc1Cl (stereo not drawn) . Reported melting point: 121 to 123 °C

Record COC(=O)C1=C(C)NC(c2ncccc2F)=NC1c1ccc(Cl)cc1 (stereo not drawn) . Reported melting point: 139 to 140 °C

Record CC1=C(C(=O)OCCOc2ccccc2)C(c2ccccc2Cl)N=C(c2ncccc2F)N1 (stereo not drawn) . Reported melting point: 123 to 125 °C

Record COC(=O)C1=C(C)NC(c2ncccc2Cl)=NC1c1ccc(F)cc1Cl (stereo not drawn) . Reported melting point: 95 to 96 °C

Record COC(=O)C1=C(C)NC(c2ncccc2F)=NC1c1ccc([N+](=O)[O-])cc1 (stereo not drawn) . Reported melting point: 142 to 143 °C

Record C=CCOC(=O)C1=C(C)NC(c2ncccc2F)=NC1c1ccccc1Cl (stereo not drawn) . Reported melting point: 124 to 126 °C

Record CCOC(=O)C1=C(C)NC(c2ncccc2F)=NC1c1ccccc1I (stereo not drawn) . Reported melting point: 163 to 164 °C

Record COC(=O)C1=C(C)NC(c2ncccc2F)=NC1c1cccc2ncc(-c3ccccc3)cc12 (stereo not drawn) . Reported melting point: 174 to 175 °C

Record CCOC(=O)C1=C(C)NC(c2ccc(F)cn2)=NC1c1ccc(F)cc1Cl (stereo not drawn) . Reported melting point: 124 °C

Record COC(=O)C1=C(C2CC2)NC(c2ncccc2F)=NC1c1ccccc1Cl (stereo not drawn) . Reported melting point: 120 to 122 °C

---

Item-by-item account of melting point

Record excerpt, results attached:
| molecule | melting point |
| --- | --- |
| CCOC(=O)C1=C(C)NC(c2ncccc2F)=NC1c1cc(Cl)cc(Cl)c1 (stereo not shown) | 133 to 134 °C |
| CCOC(=O)C1=C(C)NC(c2ccc(OC)cn2)=NC1c1ccc(F)cc1Cl (stereo not shown) | 141 °C |
| CCOC(=O)C1=C(C)NC(c2ncccc2F)=NC1c1ccc(F)cc1 (stereo not shown) | 129 to 130 °C |

Record CCOC(=O)C1=C(C)NC(c2ncccc2F)=NC1c1c(Cl)cccc1Cl (stereo not shown) . Reported melting point: 148 to 149 °C

Record COC(=O)C1=C(C)NC(c2ncccc2F)=NC1c1ccc(F)cc1 (stereo not shown) . Reported melting point: 127 to 129 °C

Record COC(=O)C1=C(C)NC(c2ncccc2F)=NC1c1ccc(Cl)cc1F (stereo not shown) . Reported melting point: 120 to 122 °C

Record COC(=O)C1=C(C)NC(c2ccc(F)cn2)=NC1c1ccc(F)cc1Cl (stereo not shown) . Reported melting point: 131 °C

Record CCOC(=O)C1=C(C)NC(c2ncccc2F)=NC1c1ccc(I)cc1 (stereo not shown) . Reported melting point: 145 to 146 °C

Record CCOC(=O)C1=C(C)NC(c2ncccc2F)=NC1c1ccc(Br)cc1 (stereo not shown) . Reported melting point: 134 to 135 °C

Record COC(=O)C1=C(C)NC(c2ncccc2F)=NC1c1ccc(F)cc1Cl (stereo not shown) . Reported melting point: 121 to 123 °C

Record CCOC(=O)C1=C(C)NC(c2ncccc2F)=NC1c1ccc(O)cc1Cl (stereo not shown) . Reported melting point: 247 to 248 °C

Record CCOC(=O)C1=C(C)NC(c2ncccc2Cl)=NC1c1ccccc1Br (stereo not shown) . Reported melting point: 137 to 138 °C

Record CCOC(=O)C1=C(C)NC(c2ncccc2Cl)=NC1c1ccc(Br)cc1F (stereo not shown) . Reported melting point: 126 to 127 °C

---

Item-by-item account of melting point

| compound | measuredParameter | val |
| --- | --- | --- |
| COC(=O)C1=C(C)NC(c2ncccc2F)=NC1c1ccccc1C(F)(F)F (centres unmarked) | melting point | 165 to 167 °C |
| COC(=O)C1=C(C)NC(c2ncccc2F)=NC1c1ccccc1 (centres unmarked) | melting point | 110 to 111 °C |
| CCOC(=O)C1=C(C)NC(c2ncccc2F)=NC1c1c(F)cccc1F (centres unmarked) | melting point | 140 to 142 °C |

Record CCOC(=O)C1=C(C)NC(c2ncccc2F)=NC1c1ccc(Cl)cc1[N+](=O)[O-] (centres unmarked) . Reported melting point: 184 to 186 °C

Record COC(=O)C1=C(C)NC(c2ncccc2Cl)=NC1c1ccc(Br)cc1F (centres unmarked) . Reported melting point: 103 to 104 °C

Record COC(=O)C1=C(C)NC(c2ncccc2Cl)=NC1c1ccccc1Cl (centres unmarked) . Reported melting point: 144 to 146 °C

Record COC(=O)C1=C(C)NC(c2cccc(C)n2)=NC1c1ccccc1Cl (centres unmarked) . Reported melting point: 142 to 143 °C

Record COC(=O)C1=C(C)NC(c2ncccc2F)=NC1c1ccc(Br)cc1 (centres unmarked) . Reported melting point: 156 to 157 °C

Record CCOC(=O)C1=C(C)NC(c2ncccc2Cl)=NC1c1ccccc1Cl (centres unmarked) . Reported melting point: 138 to 140 °C

Record CCOC(=O)C1=C(C)NC(c2ncccc2F)=NC1c1ccc(F)cc1C (centres unmarked) . Reported melting point: 167 to 169 °C

Record COC(=O)C1=C(C)NC(c2ncccc2F)=NC1c1c(Cl)cccc1Cl (centres unmarked) . Reported melting point: 180 to 182 °C
